Entry source: patent US20240166630A1

Measurement notes: In vivo pharmacokinetics in male C57BL/6 mice
Set-up: species or system mouse
Experimental context: male, C57BL/6, mouse, plasma, iv, 9.92 mg/kg, 9.92 mg/kg i.v., individual animals M10-M12, read-out: AUC0-tlast
Readout: AUC(0-t)

- Smiles: "[2H]C([2H])(c1c[nH]c2ccccc12)[C@H]1CCCN1C([2H])([2H])[2H]"
  Assay result: "3850 ng·h/mL"

====

Measurement notes: In vivo pharmacokinetics in male Sprague Dawley rats
Design: species or system rat
Experimental context: male, Sprague Dawley, rat, plasma, sc, 0.992 mg/kg, 0.992 mg/kg s.c., individual animals, read-out: AUC0-tlast
Readout: AUC(0-t) (µg·h/mL)

- Molecule: "[2H]C([2H])(c1c[nH]c2ccccc12)[C@H]1CCCN1C([2H])([2H])[2H] [I-B-1]"
  Readout: "AUC(0-t)"
  Unit text: "µg·h/mL"
  Assay result: 0.14

====

Measurement notes: In vivo pharmacokinetics in male Sprague Dawley rats
Design: species or system rat
Experimental context: male, Sprague Dawley, rat, plasma, sc, 0.992 mg/kg, 0.992 mg/kg s.c., Mean ± SD, read-out: MRT0-inf

- Smiles: "[2H]C([2H])(c1c[nH]c2ccccc12)[C@H]1CCCN1C([2H])([2H])[2H]"
  MRT inf, h: 3.83

====

Measurement notes: In vivo pharmacokinetics in male Sprague Dawley rats
Parameters: species or system rat
Experimental context: male, Sprague Dawley, rat, plasma, sc, 0.992 mg/kg, 0.992 mg/kg s.c., Mean ± SD, read-out: tmax

- Smiles: "[2H]C([2H])(c1c[nH]c2ccccc12)[C@H]1CCCN1C([2H])([2H])[2H]"
  tmax [min]: 15

====

Measurement notes: In vivo pharmacokinetics in male C57BL/6 mice
Design: species or system mouse
Experimental context: male, C57BL/6, mouse, plasma, iv, 9.92 mg/kg, 9.92 mg/kg i.v., individual animals M10-M12, read-out: Apparent t1/2 (converted)

- Molecule: "[2H]C([2H])(c1c[nH]c2ccccc12)[C@H]1CCCN1C([2H])([2H])[2H] [I-B-1]"
  half-life [min]: 138

====

Measurement notes: Liver microsomes stability with NADPH, human
Experimental context: human, microsomes
Tick 1 (yes) if microsomal CLint at 2 μM is 6 µL/min/mg or greater. Tick 0 (no) if microsomal CLint at 2 μM is less than 6 µL/min/mg.

- Smiles: "[2H]C([2H])(c1c[nH]c2ccccc12)[C@H]1CCCN1C([2H])([2H])[2H]"
  Category: "1 (yes)"
- Smiles: "[2H]C([2H])(c1c[nH]c2ccccc12)[C@H]1CCCN1C"
  Category: "1 (yes)"
- Smiles: "[2H]C([2H])(c1c[nH]c2ccccc12)[C@H]1CCCN1"
  Category: "0 (no)"
- Smiles: "[2H]C([2H])([2H])Oc1ccc2[nH]cc(C[C@H]3CCCN3C([2H])([2H])[2H])c2c1"
  Category: "0 (no)"
- Smiles: "[2H]C([2H])([2H])Oc1ccc2[nH]cc(C([2H])([2H])[C@H]3CCCN3C([2H])([2H])[2H])c2c1"
  Category: "1 (yes)"
- Smiles: "[2H]C([2H])(c1c[nH]c2ccc(OC)cc12)[C@H]1CCCN1C"
  Category: "1 (yes)"
- Smiles: "[2H]C([2H])(c1c[nH]c2ccc(OC)cc12)[C@H]1CCCN1"
  Category: "0 (no)"

====

Measured EC50 accompanies every entry in the list below.
Target or test system: human 5-HT2A (h5-HT2A) receptor (Homo sapiens, UniProt P28223)
Construct: kept under G418 and hygromycin B selection
Sequence (P28223 whole entry): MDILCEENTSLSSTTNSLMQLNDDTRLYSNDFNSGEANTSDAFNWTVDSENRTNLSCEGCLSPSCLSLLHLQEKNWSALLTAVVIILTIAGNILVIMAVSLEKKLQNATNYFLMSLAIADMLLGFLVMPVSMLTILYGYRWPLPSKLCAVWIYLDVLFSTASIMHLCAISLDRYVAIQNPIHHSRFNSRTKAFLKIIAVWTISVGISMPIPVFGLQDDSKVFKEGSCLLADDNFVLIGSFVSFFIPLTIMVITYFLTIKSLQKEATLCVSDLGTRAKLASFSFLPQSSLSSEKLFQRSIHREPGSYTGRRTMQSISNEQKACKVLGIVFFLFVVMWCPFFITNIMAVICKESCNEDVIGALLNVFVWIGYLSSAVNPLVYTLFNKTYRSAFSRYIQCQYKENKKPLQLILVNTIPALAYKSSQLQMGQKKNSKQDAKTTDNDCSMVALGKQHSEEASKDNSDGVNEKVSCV
Measurement notes: FLIPR assay, human 5-HT2A receptor under agonist mode

- Molecule: "[2H]C([2H])([2H])Oc1ccc2[nH]cc(C[C@H]3CCCN3)c2c1"
  EC50: "< 100 nM"
- Molecule: "[2H]C([2H])([2H])Oc1ccc2[nH]cc(C([2H])([2H])[C@H]3CCCN3)c2c1"
  EC50: "< 100 nM"
- Molecule: "[2H]C([2H])(c1c[nH]c2ccc(OC)cc12)[C@H]1CCCN1"
  EC50: "< 100 nM"
- Molecule: "[2H]C([2H])([2H])Oc1ccc2[nH]cc(C[C@H]3CCCN3C([2H])([2H])[2H])c2c1"
  EC50: "< 100 nM"
- Molecule: "[2H]C([2H])(c1c[nH]c2ccc(OC)cc12)[C@H]1CCCN1C"
  EC50: "< 100 nM"
- Molecule: "CN(C)CCc1c[nH]c2ccccc12 [DMT, N,N-dimethyltryptamine, reference compound]"
  EC50: "100 to 1000 nM"
- Molecule: "[2H]C([2H])(c1c[nH]c2ccccc12)[C@H]1CCCN1C"
  EC50: "< 100 nM"
- Molecule: "[2H]C([2H])([2H])Oc1ccc2[nH]cc(C([2H])([2H])[C@H]3CCCN3C([2H])([2H])[2H])c2c1"
  EC50: "< 100 nM"
- Molecule: "[2H]C([2H])(c1c[nH]c2ccc(OC)cc12)[C@H]1CCCN1C([2H])([2H])[2H]"
  EC50: "< 100 nM"
- Molecule: "[2H]C([2H])([2H])N1CCC[C@@H]1Cc1c[nH]c2ccc(OC)cc12"
  EC50: "< 100 nM"
- Molecule: "[2H]C([2H])(c1c[nH]c2ccccc12)[C@H]1CCCN1"
  EC50: "100 to 1000 nM"
- Molecule: "[2H]C([2H])(c1c[nH]c2ccccc12)[C@H]1CCCN1C([2H])([2H])[2H]"
  EC50: "100 to 1000 nM"

====

Measured Remaining Percentage (%) after 60 min Human by item
Measurement notes: Liver microsomes stability with NADPH, human
Experimental context: human liver microsomes, with NADPH, 2 μM
Protocol: The objective of this study was to estimate in vitro metabolic stability of representative compounds of the application in pooled human and male mouse liver microsomes. The concentrations of parent compounds in reaction systems were evaluated by LC-MS/MS for estimating the stability in pooled human and male mouse liver microsomes. The in vitro intrinsic clearances of test compounds were determined as well. […] The in vitro half-life (in vitro t1/2) was determined from the slope value: […]
Readout: Remaining Percentage (%) after 60 min Human

- Smiles: "[2H]C([2H])(c1c[nH]c2ccccc12)[C@H]1CCCN1C([2H])([2H])[2H]"
  Assay result: 82.74
- Smiles: "[2H]C([2H])([2H])Oc1ccc2[nH]cc(C[C@H]3CCCN3)c2c1"
  Assay result: 110.97
- Smiles: "[2H]C([2H])([2H])Oc1ccc2[nH]cc(C([2H])([2H])[C@H]3CCCN3C([2H])([2H])[2H])c2c1"
  Assay result: 78.24
- Smiles: "[2H]C([2H])(c1c[nH]c2ccc(OC)cc12)[C@H]1CCCN1"
  Assay result: 85.35
- Smiles: "[2H]C([2H])(c1c[nH]c2ccccc12)[C@H]1CCCN1"
  Assay result: 91.11
- Smiles: "[2H]C([2H])(c1c[nH]c2ccc(OC)cc12)[C@H]1CCCN1C"
  Assay result: 78.24

====

Measurement notes: In vivo pharmacokinetics in male C57BL/6 mice
Set-up: species or system mouse
Experimental context: male, C57BL/6, mouse, plasma, sc, 9.92 mg/kg, 9.92 mg/kg s.c., Mean ± SD, read-out: AUC0-inf

- Smiles: "[2H]C([2H])(c1c[nH]c2ccccc12)[C@H]1CCCN1C([2H])([2H])[2H]"
  AUC(0-inf) (ng·h/mL): 2720

====

Measurement notes: Liver microsomes stability with NADPH, mouse
Experimental context: mouse liver microsomes, with NADPH, 2 μM
A collection of compounds and their measured Remaining Percentage (%) after 60 min Mouse
Readout: Remaining Percentage (%) after 60 min Mouse

- Compound: "[2H]C([2H])(c1c[nH]c2ccccc12)[C@H]1CCCN1C [I-B-2]"
  Assay result: "50.81%"
- Compound: "CN(C)CCc1c[nH]c2ccccc12 [DMT, N,N-dimethyltryptamine, reference compound]"
  Assay result: "65.90%"
- Compound: "[2H]C([2H])(c1c[nH]c2ccc(OC)cc12)[C@H]1CCCN1 [I-B-16]"
  Assay result: "60.16%"
- Compound: "[2H]C([2H])(c1c[nH]c2ccccc12)[C@H]1CCCN1 [I-B-8]"
  Assay result: "56.72%"
- Compound: "COc1ccc2[nH]cc(CCN(C)C)c2c1 [Compound 5-MeO-DMT, 5-methoxy-N,N-dimethyltryptamine, reference compound]"
  Assay result: "89.36%"
- Compound: "[2H]C([2H])(c1c[nH]c2ccc(OC)cc12)[C@H]1CCCN1C [I-B-10]"
  Assay result: "63.17%"
- Compound: "[2H]C([2H])(c1c[nH]c2ccccc12)[C@H]1CCCN1C([2H])([2H])[2H] [I-B-1]"
  Assay result: "55.00%"
- Compound: "[2H]C([2H])([2H])Oc1ccc2[nH]cc(C[C@H]3CCCN3C([2H])([2H])[2H])c2c1 [I-B-11]"
  Assay result: "60.16%"
- Compound: "[2H]C([2H])([2H])Oc1ccc2[nH]cc(C[C@H]3CCCN3)c2c1 [I-B-14]"
  Assay result: "91.85%"
- Compound: "[2H]C([2H])([2H])Oc1ccc2[nH]cc(C([2H])([2H])[C@H]3CCCN3C([2H])([2H])[2H])c2c1 [I-B-12]"
  Assay result: "63.17%"
